Assay: Cytotoxicity against mouse NIH/3T3 cells after 72 hrs by MTT assay
Assay type: cell-based
Conditions: NIH3T3, 72 h
Exercise: for every item that follows, state its recorded IC50.
Give the value in µM but do not write µM after it.

Data request, read-out IC50, for COc1ccc(/C=C/C(=O)CC(C)=O)cc1
48.2

Data request, read-out IC50, for COc1ccc(/C=C/c2cc(C)n[nH]2)cc1
19.9

Data request, read-out IC50, for Cc1cc(/C=C/c2ccc(O)cc2)on1
88.5

Data request, read-out IC50, for CC(=O)/C=C(O)/C=C/c1ccc(O)c(O)c1
51.2

Data request, read-out IC50, for Cc1cc(/C=C/c2ccc(O)c(O)c2)[nH]n1
88.4

Data request, read-out IC50, for Cc1cc(/C=C/c2ccc(O)cc2)[nH]n1
59.2

###

Exercise: for every item that follows, state its recorded Ratio IC50.
Test system: HEK293
Test: Resistance index, ratio of IC50 for HEK293 cells expressing ABCB1 to IC50 for HEK293 cells expressing pcDNA3.1
Design: species or system Homo sapiens
Output spec: single numeric token, no unit.

Param readout= Ratio IC50; system= HEK293; entry= COc1ccc(/C=C/c2cc(C)n[nH]2)cc1 ; returns value.
1.3

Param readout= Ratio IC50; system= HEK293; entry= CC(=O)CC(=O)/C=C/c1ccc(O)cc1 ; returns value.
1.1

Param readout= Ratio IC50; system= HEK293; entry= COc1ccc(/C=C/c2cc(C)no2)cc1OC ; returns value.
1.2

Param readout= Ratio IC50; system= HEK293; entry= COc1cc(/C=C/c2cc(C)no2)ccc1O ; returns value.
1.1

Param readout= Ratio IC50; system= HEK293; entry= COc1ccc(/C=C/c2cc(C)n[nH]2)cc1OC ; returns value.
1.4

Param readout= Ratio IC50; system= HEK293; entry= COc1cc(CCC(=O)CC(C)=O)ccc1O ; returns value.
1

Param readout= Ratio IC50; system= HEK293; entry= COc1ccc(/C=C/C(=O)CC(C)=O)cc1OC ; returns value.
1.3

###

Test system: MDCK
Experiment: Cytotoxicity against MDCK cells after 72 hrs by MTT assay
Format: cell-based
Settings: Canis lupus familiaris
Property: pIC50
Remember the convention: pIC50 equals -log10 of concentration in molar.

Param readout= pIC50; system= MDCK; entry= Cc1cc(/C=C/c2ccc(O)cc2)on1 ; returns value.
4.23

Param readout= pIC50; system= MDCK; entry= COc1cc(CCC(=O)CC(C)=O)ccc1O ; returns value.
4.14

Param readout= pIC50; system= MDCK; entry= COc1ccc(/C=C/c2cc(C)no2)cc1OC ; returns value.
4.35

Param readout= pIC50; system= MDCK; entry= COc1ccc(/C=C/C(=O)CC(C)=O)cc1 ; returns value.
4.38

Param readout= pIC50; system= MDCK; entry= COc1cc(/C=C/c2cc(C)[nH]n2)ccc1O ; returns value.
4.45

Param readout= pIC50; system= MDCK; entry= CC(=O)/C=C(O)/C=C/c1ccc(O)c(O)c1 [HISPOLON] ; returns value.
4.44

###

Tested on: HEK293
Experiment: Resistance index, ratio of IC50 for HEK293 cells expressing ABCB1 to IC50 for HEK293 cells expressing pcDNA3.1
Set-up: species or system Homo sapiens
Property: Ratio IC50
Output spec: single numeric token, no unit.

Param readout= Ratio IC50; system= HEK293; entry= Cc1cc(/C=C/c2ccc(O)c(O)c2)on1 ; returns value.
0.9

Param readout= Ratio IC50; system= HEK293; entry= COc1cc(/C=C/c2cc(C)[nH]n2)ccc1O ; returns value.
0.9

Param readout= Ratio IC50; system= HEK293; entry= COc1ccc(/C=C/c2cc(C)no2)cc1 ; returns value.
1.1

Param readout= Ratio IC50; system= HEK293; entry= Cc1cc(/C=C/c2ccc(O)cc2)[nH]n1 ; returns value.
0.9

Param readout= Ratio IC50; system= HEK293; entry= CC(=O)/C=C(O)/C=C/c1ccc(O)c(O)c1 ; returns value.
1.3

Param readout= Ratio IC50; system= HEK293; entry= CC(=O)O[C@H]1C(=O)[C@@]2(C)[C@H]([C@H](OC(=O)c3ccccc3)[C@]3(O)C[C@H](OC(=O)[C@H](O)[C@@H](NC(=O)c4ccccc4)c4ccccc4)C(C)=C1C3(C)C)[C@]1(OC(C)=O)CO[C@@H]1C[C@@H]2O ; returns value.
9

Param readout= Ratio IC50; system= HEK293; entry= COc1cc(/C=C/C(=O)CC(C)=O)ccc1O ; returns value.
1.2

Param readout= Ratio IC50; system= HEK293; entry= Cc1cc(/C=C/c2ccc(O)c(O)c2)[nH]n1 ; returns value.
1.3

Param readout= Ratio IC50; system= HEK293; entry= Cc1cc(/C=C/c2ccc(O)cc2)on1 ; returns value.
1

Param readout= Ratio IC50; system= HEK293; entry= COc1ccc(/C=C/C(=O)CC(C)=O)cc1 ; returns value.
0.9
